Cited source for all entries: patent US12703693B2

test description: Solvent solubility of amorphous Compound 1 (solvent aliquot addition)
Type: physicochemical
reported conditions: ethanol, organic solvent or mixture, thermodynamic from solid
readout label: solubility

I am curious: what solubility value has been reported for COc1ccc(-c2cncc(N[C@@H](C)c3cccc(NC(=O)c4cncc(C)c4)c3)n2)cc1OC [Amorphous Compound 1] ?
≥ 200 mg/mL

---

test description: Solubility in ethanol/water mixtures
reported conditions: ethanol/water 40:60 (w:w), 22 °C, aqueous with cosolvent or surfactant or cyclodextrin, thermodynamic from solid
readout label: solubility at 24 h (µg/mL)
The figure you give is taken to be in µg/mL; do not add the unit.

I am curious: what solubility at 24 h value has been reported for `CC(C)C[C@H](N)C(=O)O` ?
5710

---

test description: Solubility in ethanol/water mixtures
reported conditions: ethanol/water 50:50 (w:w), 22 °C, aqueous with cosolvent or surfactant or cyclodextrin, thermodynamic from solid
readout label: solubility (µg/mL)
The figure you give is taken to be in µg/mL; do not add the unit.

I am curious: what solubility value has been reported for `CC(C)C[C@H](N)C(=O)O` ?
5070

---

test description: Particle size distribution (PSD) of micronized / spray dried material
Format: physicochemical
reported conditions: wet polished (wet milled + spray dried) Compound 1 Form A; PSD set 2
readout label: SPAN 2
Give only the figure.

I am curious: what SPAN 2 value has been reported for COc1ccc(-c2cncc(N[C@@H](C)c3cccc(NC(=O)c4cncc(C)c4)c3)n2)cc1OC [Compound 3B-2F] ?
3.6

I am curious: what SPAN 2 value has been reported for COc1ccc(-c2cncc(N[C@@H](C)c3cccc(NC(=O)c4cncc(C)c4)c3)n2)cc1OC [Compound 1BI] ?
1.6

I am curious: what SPAN 2 value has been reported for COc1ccc(-c2cncc(N[C@@H](C)c3cccc(NC(=O)c4cncc(C)c4)c3)n2)cc1OC [Compound 1BII] ?
1.6

I am curious: what SPAN 2 value has been reported for COc1ccc(-c2cncc(N[C@@H](C)c3cccc(NC(=O)c4cncc(C)c4)c3)n2)cc1OC [Compound 1BIII] ?
1.7

---

test description: Solvent solubility of amorphous Compound 1 (solvent aliquot addition)
Type: physicochemical
reported conditions: organic solvent or mixture, thermodynamic from solid; EtOAc/tBME (25:75% v/v); sample heated to 40° C.
readout label: solubility

I am curious: what solubility value has been reported for COc1ccc(-c2cncc(N[C@@H](C)c3cccc(NC(=O)c4cncc(C)c4)c3)n2)cc1OC [Amorphous Compound 1] ?
~12.5 mg/mL

---

test description: Solvent solubility of amorphous Compound 1 (solvent aliquot addition)
Assay type: physicochemical
reported conditions: water, thermodynamic from solid
readout label: solubility

I am curious: what solubility value has been reported for `COc1ccc(-c2cncc(N[C@@H](C)c3cccc(NC(=O)c4cncc(C)c4)c3)n2)cc1OC` ?
< 10000 µg/mL

---

test description: Solvent solubility of amorphous Compound 1 (solvent aliquot addition)
Format: physicochemical
reported conditions: ethanol/water (95:5% v/v), organic solvent or mixture, thermodynamic from solid
readout label: solubility

I am curious: what solubility value has been reported for `COc1ccc(-c2cncc(N[C@@H](C)c3cccc(NC(=O)c4cncc(C)c4)c3)n2)cc1OC` ?
≥ 200 mg/mL

---

test description: Particle size distribution (PSD) of micronized / spray dried material
Type: physicochemical
reported conditions: wet polished (wet milled + spray dried) Compound 1 Form A; PSD set 2
Kindly supply the reported Dv10 (μm) 2 values for the records listed here.
The figure you give is taken to be in μm; do not add the unit.

I am curious: what Dv10 (μm) 2 value has been reported for COc1ccc(-c2cncc(N[C@@H](C)c3cccc(NC(=O)c4cncc(C)c4)c3)n2)cc1OC [Compound 1BII] ?
1.3

I am curious: what Dv10 (μm) 2 value has been reported for COc1ccc(-c2cncc(N[C@@H](C)c3cccc(NC(=O)c4cncc(C)c4)c3)n2)cc1OC [Compound 1BI] ?
1.5

I am curious: what Dv10 (μm) 2 value has been reported for COc1ccc(-c2cncc(N[C@@H](C)c3cccc(NC(=O)c4cncc(C)c4)c3)n2)cc1OC [Compound 1BIII] ?
1.4

I am curious: what Dv10 (μm) 2 value has been reported for COc1ccc(-c2cncc(N[C@@H](C)c3cccc(NC(=O)c4cncc(C)c4)c3)n2)cc1OC [Compound 3B-2F] ?
1.3
